Target: human BACE-1 (Homo sapiens, UniProt P56817)
Sequence (P56817 46-501): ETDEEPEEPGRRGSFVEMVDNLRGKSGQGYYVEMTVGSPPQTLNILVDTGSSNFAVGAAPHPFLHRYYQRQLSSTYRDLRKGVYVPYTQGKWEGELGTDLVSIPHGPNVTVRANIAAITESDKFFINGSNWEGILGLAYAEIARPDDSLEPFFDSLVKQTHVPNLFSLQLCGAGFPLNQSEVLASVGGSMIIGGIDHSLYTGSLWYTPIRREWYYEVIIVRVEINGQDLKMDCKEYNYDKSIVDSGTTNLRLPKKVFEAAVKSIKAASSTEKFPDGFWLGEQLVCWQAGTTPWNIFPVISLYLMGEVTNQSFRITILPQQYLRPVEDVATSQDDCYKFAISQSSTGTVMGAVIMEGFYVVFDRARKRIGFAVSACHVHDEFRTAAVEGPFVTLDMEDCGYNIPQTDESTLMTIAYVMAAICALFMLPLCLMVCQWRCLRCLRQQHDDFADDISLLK
Test: CEREP BACE Inhibition Assay
Assay type: biochemical
Details: 1.0 μM; percent inhibition of the control activity; recombinant enzyme; read-out: % Inhibition @ 1.0 μM
I'd appreciate it if you could supply inhibition at 1 µM values for the items below.
Answers without a unit are incomplete; give the number and then its unit.

In: Name the recorded inhibition at 1 µM of CC(C)CN(CCN1CCOCC1)C(=O)CC[C@@H](C1CCCCC1)N1Cc2cc(Oc3ccccc3)ncc2N=C1N [Compound 189] , assay system human BACE-1 (Homo sapiens, UniProt P56817).
Out: 99%

In: Write inhibition at 1 µM of CN(CC[C@@H](C1CCCCC1)N1Cc2cc(Oc3ccccc3)ncc2N=C1N)C1CCCCC1 [Compound 206] ; system used: human BACE-1 (Homo sapiens, UniProt P56817)
Out: 91%

In: Write down measured inhibition at 1 µM (human BACE-1 (Homo sapiens, UniProt P56817)) for this molecule. CC(C)(C)c1cn(C[C@@H](C2CCCCC2)N2Cc3cc(Oc4ccccc4)ncc3N=C2N)nn1 [Compound 152]
Out: 99%

In: Find inhibition at 1 µM for NC1=Nc2cnc(Oc3ccccc3)cc2CN1[C@@H](CCC(=O)N(CCO)Cc1cccs1)C1CCCCC1 [Compound 141] on human BACE-1 (Homo sapiens, UniProt P56817) and write it down.
Out: 98%

----------
Biological target: human BACE-1 (Homo sapiens, UniProt P56817)
Assay: CEREP BACE Inhibition Assay
Type: biochemical
Details: recombinant enzyme; read-out: IC50
RECORDED ENDPOINT: pIC50
Just so you know, pIC50 here is -log10 of the concentration in molar units; reply with that number alone.

In: Annotate the molecule NC1=Nc2cnc(Oc3ccccc3)cc2CN1[C@@H](CCC(=O)N1CCC(c2ccccc2)CC1)C1CCCCC1 [Compound 149] with its measured pIC50.
Out: 6.13

In: Give the value of pIC50 reported for the following: CC(C)[C@H](CCC(=O)N[C@H](COCc1ccccc1)C(=O)O)N1Cc2cc(Oc3ccccc3)ncc2N=C1N [Compound 54]
Out: 6.77

In: # return recorded pIC50 for input NC1=Nc2cnc(Oc3ccccc3)cc2CN1[C@@H](CCC(=O)N1CCOCC1)C1CCCCC1 [Compound 166]
Out: 6.70

In: Specify pIC50 for CN(C(=O)CC[C@@H](C1CCOCC1)N1Cc2cc(Oc3ccccc3)ncc2N=C1N)[C@H](COC(C)(C)C)C(=O)O [Compound 60] and stop.
Out: 7.00

----------
Molecular target: human BACE-1 (Homo sapiens, UniProt P56817)
Assay: CEREP BACE Inhibition Assay
Assay type: biochemical
Conditions: IC50 (μM), recombinant enzyme
RECORDED ENDPOINT: IC50 (µM)
Provide the reading as a plain figure in µM.

In: Assign IC50 to the following record: CC(C)C(COCC1CC(C2CCCCC2)=NO1)N1Cc2cc(Oc3ccccc3)ncc2N=C1N (stereo not shown)
Out: 0.61

----------
Field: IC50. Provide a value for each of the molecules that follow.
Molecular target: human BACE-1 (Homo sapiens)
Assay: CEREP BACE Inhibition Assay
Type: biochemical
Details: recombinant enzyme; read-out: IC50
Form entry: value (nM) — number only.

In: Enter IC50 (test system human BACE-1 (Homo sapiens)) for COC(=O)[C@H](COC(C)(C)C)N(C)C(=O)CC[C@@H](C1CCCCC1)N1Cc2cc(Oc3ccccc3)ncc2N=C1N
Out: 110

In: Fill in IC50 for CC(C)[C@H](COCC1CCCCC1)N1Cc2cc(Oc3ccccc3)ncc2N=C1N tested with human BACE-1 (Homo sapiens).
Out: 180

In: Check human BACE-1 (Homo sapiens) data and give IC50 for CC(C)(C)CCN(Cc1ccncc1)C(=O)CC[C@@H](C1CCCCC1)N1Cc2cc(Oc3ccccc3)ncc2N=C1N .
Out: 170

In: Under human BACE-1 (Homo sapiens): report IC50 of CC(C)[C@H](COCc1cc(C(C)(C)C)no1)N1Cc2cc(Oc3ccccc3)ncc2N=C1N .
Out: 270

----------
Biological target: human BACE-1 (Homo sapiens)
Test: CEREP BACE Inhibition Assay
Assay type: biochemical
Conditions: 1.0 μM; percent inhibition of the control activity; recombinant enzyme; read-out: % Inhibition @ 1.0 μM
RECORDED ENDPOINT: inhibition at 1 µM (%)
Express it in %; write the number only.

In: Report inhibition at 1 µM from human BACE-1 (Homo sapiens) testing of CC(C)CNC(=O)CC[C@@H](C1CCCCC1)N1Cc2cc(Oc3ccccc3)ncc2N=C1N
Out: 98

In: Retrieve inhibition at 1 µM on human BACE-1 (Homo sapiens); query CC(C)CN(CCN1CCOCC1)C(=O)CC[C@@H](C(C)C)N1Cc2cc(Oc3ccccc3)ncc2N=C1N
Out: 86

In: Please look at CC(C)(C)CNCC[C@@H](C1CCCCC1)N1Cc2cc(Oc3ccccc3)ncc2N=C1N and tell me its recorded inhibition at 1 µM on human BACE-1 (Homo sapiens).
Out: 57

In: Give inhibition at 1 µM for Cn1c(CN(CCC(C)(C)C)C(=O)CC[C@@H](C2CCCCC2)N2Cc3cc(Oc4ccccc4)ncc3N=C2N)nc(Cl)c1Cl tested on human BACE-1 (Homo sapiens).
Out: 99

In: Answer with inhibition at 1 µM of NC1=Nc2cnc(Oc3ccccc3)cc2CN1[C@@H](CCC(=O)NC[C@H]1CCCO1)C1CCCCC1 measured for human BACE-1 (Homo sapiens).
Out: 98

In: Quote human BACE-1 (Homo sapiens) inhibition at 1 µM for entry CC(C)(C)OC[C@H](CN)NC(=O)CC[C@@H](C1CCCCC1)N1Cc2cc(Oc3ccccc3)ncc2N=C1N .
Out: 101

In: State inhibition at 1 µM (human BACE-1 (Homo sapiens)) of CC(C)(C)OC(=O)CC[C@@H](C1CCCCC1)N1Cc2cc(Oc3ccccc3)ncc2N=C1N .
Out: 90

In: Please indicate recorded inhibition at 1 µM of CC(C)(C)OCCN(Cc1ccsc1)C(=O)CC[C@@H](C1CCCCC1)N1Cc2cc(Oc3ccccc3)ncc2N=C1N measured with human BACE-1 (Homo sapiens).
Out: 102

In: Provide inhibition at 1 µM, system human BACE-1 (Homo sapiens), entry CC(C)(CO)CNC(=O)CC[C@@H](C1CCCCC1)N1Cc2cc(Oc3ccccc3)ncc2N=C1N
Out: 100

In: Recall the reported inhibition at 1 µM of NC1=Nc2cnc(Oc3ccccc3)cc2CN1[C@@H](CCC(=O)N1CCC[C@@H]1CO)C1CCCCC1 on human BACE-1 (Homo sapiens) and write it down.
Out: 81

In: GET inhibition at 1 µM where system = human BACE-1 (Homo sapiens) and item = CC(C)(C)CCN(CCNC(=O)OC(C)(C)C)C(=O)CC[C@@H](C1CCCCC1)N1Cc2cc(Oc3ccccc3)ncc2N=C1N
Out: 99

In: Give reported inhibition at 1 µM for NC1=Nc2cnc(Oc3ccccc3)cc2CN1[C@@H](Cn1cc(C2CCCCC2)nn1)C1CCCCC1 (human BACE-1 (Homo sapiens))
Out: 98

In: Recall the reported inhibition at 1 µM of C[C@@H](O)[C@H](CCC(=O)NCC(C)(C)C)N1Cc2cc(Oc3ccccc3)ncc2N=C1N when tested on human BACE-1 (Homo sapiens).
Out: 81

In: Using human BACE-1 (Homo sapiens) as the test system, report measured inhibition at 1 µM of CC(C)(C)OCCN(Cc1ccc(F)cc1)C(=O)CC[C@@H](C1CCCCC1)N1Cc2cc(Oc3ccccc3)ncc2N=C1N .
Out: 102

In: Report value: inhibition at 1 µM, system: human BACE-1 (Homo sapiens), molecule: Cn1ccnc1CN(C(=O)CC[C@@H](C1CCCCC1)N1Cc2cc(Oc3ccccc3)ncc2N=C1N)C1CCCCC1
Out: 99

In: For human BACE-1 (Homo sapiens), give the measured inhibition at 1 µM of the entry CC(C)(C)OCCN(Cc1ccccn1)C(=O)CC[C@@H](C1CCCCC1)N1Cc2cc(Oc3ccccc3)ncc2N=C1N
Out: 100

In: Please tell me the measured inhibition at 1 µM for CC(C)(C)CNC(=O)CC[C@@H](C1CCCCC1)N1Cc2cc(Oc3ccccc3)ncc2N=C1N ; system: human BACE-1 (Homo sapiens).
Out: 100

In: Provide inhibition at 1 µM, recorded with human BACE-1 (Homo sapiens), of CC(C)(C)OCCN(Cc1cccs1)C(=O)CC[C@@H](C1CCCCC1)N1Cc2cc(Oc3ccccc3)ncc2N=C1N
Out: 102

In: Param request: inhibition at 1 µM | system human BACE-1 (Homo sapiens) | item CC(C)(C)N(CCO)C(=O)CC[C@@H](C1CCCCC1)N1Cc2cc(Oc3ccccc3)ncc2N=C1N
Out: 80

In: Report the value of inhibition at 1 µM obtained on human BACE-1 (Homo sapiens) for NC1=Nc2cnc(Oc3ccccc3)cc2CN1[C@@H](CCC(=O)N1CCC[C@H]1CO)C1CCCCC1 .
Out: 65

In: Answer with inhibition at 1 µM of CC(C)(C)OC[C@@H](NC(=O)CC[C@@H](C1CCCCC1)N1Cc2cc(Oc3ccccc3)ncc2N=C1N)C(N)=O measured for human BACE-1 (Homo sapiens).
Out: 100

In: Report its inhibition at 1 µM with human BACE-1 (Homo sapiens) as the test system: C[C@H](CO)N(C)CCC[C@@H](C1CCCCC1)N1Cc2cc(Oc3ccccc3)ncc2N=C1N
Out: 45

In: # return inhibition at 1 µM of CC(C)(CO)NC(=O)CC[C@@H](C1CCCCC1)N1Cc2cc(Oc3ccccc3)ncc2N=C1N (system: human BACE-1 (Homo sapiens))
Out: 99

In: // fetch inhibition at 1 µM for CN(CCC[C@@H](C1CCCCC1)N1Cc2cc(Oc3ccccc3)ncc2N=C1N)C1CCCCC1 ; system: human BACE-1 (Homo sapiens)
Out: 99

In: State inhibition at 1 µM (human BACE-1 (Homo sapiens)) of CC(C)(C)OC(=O)N1CCC(NC(=O)CC[C@@H](C2CCCCC2)N2Cc3cc(Oc4ccccc4)ncc3N=C2N)CC1 .
Out: 95

In: State recorded inhibition at 1 µM with human BACE-1 (Homo sapiens), entry CC(C)[C@H](CCC(=O)N[C@H](C)CO)N1Cc2cc(Oc3ccccc3)ncc2N=C1N , no comment.
Out: 93

In: Look up and report measured inhibition at 1 µM (human BACE-1 (Homo sapiens)) for the following molecule: CC(C)(C)CCN(CCN1CCOCC1)C(=O)CC[C@@H](C1CCCCC1)N1Cc2cc(Oc3ccccc3)ncc2N=C1N
Out: 100

In: Using human BACE-1 (Homo sapiens) as the test system, report measured inhibition at 1 µM of C[C@H](CO)N(CCC(C)(C)C)C(=O)CC[C@@H](C1CCCCC1)N1Cc2cc(Oc3ccccc3)ncc2N=C1N .
Out: 8

In: Would you please give the reported inhibition at 1 µM of CC(C)OC(=O)[C@@H](COC(C)(C)C)NC(=O)CC[C@@H](C1CCCCC1)N1Cc2cc(Oc3ccccc3)ncc2N=C1N with human BACE-1 (Homo sapiens)?
Out: 98

Values compiled from patent US7531545B2.
